# System Tested: Adenosine receptor A1 (Rattus norvegicus) (UniProt P25099)
# Sequence (P25099 whole entry): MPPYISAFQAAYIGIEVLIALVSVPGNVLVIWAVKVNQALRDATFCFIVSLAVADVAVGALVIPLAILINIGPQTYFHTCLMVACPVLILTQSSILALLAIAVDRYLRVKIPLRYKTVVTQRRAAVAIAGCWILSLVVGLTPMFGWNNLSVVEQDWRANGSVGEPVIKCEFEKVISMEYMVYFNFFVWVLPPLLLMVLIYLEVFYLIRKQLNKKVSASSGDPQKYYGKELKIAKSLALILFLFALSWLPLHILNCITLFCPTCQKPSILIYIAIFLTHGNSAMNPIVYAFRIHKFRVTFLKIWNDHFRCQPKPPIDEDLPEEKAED
# Assay Method Text: Percent displacement from adenosine A1 receptor at 10e-7 M in rat brain membrane in vitro.
# Assay type: cell membranes
# Displacement per record follows
Please answer using the number first and the unit second.

Look over these answered cases.
>>> data_value("Cc1ccccc1Cn1cc(CCNc2ncnc3c2ncn3C2O[C@H](C(=O)NC3CC3)[C@@H](O)[C@H]2O)c2ccccc21 (stereo not given in full)")
"40%"
>>> data_value("Cc1ccc(C)c(Cn2cc(CCNc3ncnc4c3ncn4C3O[C@H](C(=O)NC4CC4)[C@@H](O)[C@H]3O)c3ccccc32)c1 (stereo not given in full)")
"26%"
>>> data_value("O=C(NC1CC1)[C@H]1O[C@@H](n2cnc3c(NCCc4cn(C5CCCC5)c5ccccc45)ncnc32)[C@H](O)[C@@H]1O")
"21%"
>>> data_value("O=C(NC1CC1)[C@H]1OC(n2cnc3c(NCCc4cn(Cc5ccccc5)c5ccccc45)ncnc32)[C@H](O)[C@@H]1O (stereo not given in full)")
"35%"

Then there is this molecule:
Reported Displacement of OC[C@H]1OC(n2cnc3c(NCCc4cn(Cc5ccccc5)c5ccccc45)ncnc32)[C@H](O)[C@@H]1O (stereo not given in full) : 67%

---

# System Tested: Adenosine A2 receptor (Rattus norvegicus) (UniProt P29276+P30543)
# Assay Method Text: Percent displacement from adenosine A2 receptor at 10e-5 M in rat striatal membrane in vitro.
# Type: cell membranes
Recorded Endpoint: Displacement (%)
Could you give me the number in %? Just the number is fine.

The cases that follow already have their Displacement on record.
>>> data_value("CN(C)CCn1cc(CCNc2ncnc3c2ncn3C2O[C@H](C(=O)NC3CC3)[C@@H](O)[C@H]2O)c2ccccc21 (stereo not given in full)")
95
>>> data_value("CC(C)(CO)NC(=O)[C@H]1OC(n2cnc3c(NCCc4cn(Cc5ccc(Cl)cc5)c5ccccc45)ncnc32)[C@H](O)[C@@H]1O (stereo not given in full)")
50
>>> data_value("COc1ccccc1Cn1cc(CCNc2ncnc3c2ncn3C2O[C@H](C(=O)NC3CC3)[C@@H](O)[C@H]2O)c2ccccc21 (stereo not given in full)")
89
>>> data_value("O=C(NC1CC1)[C@H]1O[C@@H](n2cnc3c(NCCc4cn(Cc5cccnc5)c5ccccc45)ncnc32)[C@H](O)[C@@H]1O")
98
>>> data_value("O=C(NC1CC1)[C@H]1O[C@@H](n2cnc3c(NCCc4cn(Cc5cccc([N+](=O)[O-])c5)c5ccccc45)ncnc32)[C@H](O)[C@@H]1O")
99

In plain terms, `COCCn1cc(CCNc2ncnc3c2ncn3[C@@H]2O[C@H](C(=O)NC3CC3)[C@@H](O)[C@H]2O)c2ccccc21` has a documented Displacement of 90

Entry OC[C@H]1OC(n2cnc3c(NCCc4cn(Cc5ccccc5)c5ccccc45)ncnc32)[C@H](O)[C@@H]1O (stereo not given in full) ; Displacement = 95

Lab note: measured Displacement of OC[C@H]1OC(n2cnc3c(NCCc4cn(Cc5c(Cl)cccc5Cl)c5ccccc45)ncnc32)[C@H](O)[C@@H]1O (stereo not given in full) was 91

Recorded Displacement (molecule Cc1ccc(C)c(Cn2c(C)c(CCNc3ncnc4c3ncn4C3O[C@H](C(=O)NC4CC4)[C@@H](O)[C@H]3O)c3ccccc32)c1 (stereo not given in full) ): 60

# molecule Cc1ccc(Cn2cc(CCNc3ncnc4c3ncn4C3O[C@H](C(=O)NC4CC4)[C@@H](O)[C@H]3O)c3ccccc32)cc1 (stereo not given in full) ; its Displacement = 89

// Displacement value for Cc1ccc(C)c(Cn2cc(CCNc3ncnc4c3ncn4C3O[C@H](C(=O)NC4CC4)[C@@H](O)[C@H]3O)c3ccccc32)c1 (stereo not given in full) : 85

The reported value for Cn1cc(CCNc2ncnc3c2ncn3C2O[C@H](C(=O)NC3CC3)[C@@H](O)[C@H]2O)c2ccccc21 (stereo not given in full) in terms of Displacement is 91

Per the records, this molecule ( Cc1ccc(Cn2cc(CCNc3ncnc4c3ncn4C3O[C@H](C(=O)NC4CC4)[C@@H](O)[C@H]3O)c3ccccc32)cc1C (stereo not given in full) ) has Displacement equal to 83

Entry C=CCn1cc(CCNc2ncnc3c2ncn3C2O[C@H](C(=O)NC3CC3)[C@@H](O)[C@H]2O)c2ccccc21 (stereo not given in full) ; Displacement = 80

Displacement measured on O=C(NC1CC1)[C@H]1OC(n2cnc3c(NCCc4cn(Cc5ccccc5)c5ccccc45)ncnc32)[C@H](O)[C@@H]1O (stereo not given in full) = 94

---

# System Tested: Adenosine A2 receptor (Rattus norvegicus, UniProt P29276+P30543)
# Assay Method Text: Binding affinity for adenosine A2 receptor in vitro using rat striatal membrane.
# Assay type: cell membranes
This section presents compounds with their documented Ki values.
# output: bare number, implied unit nM

// below: answered compounds
>>> data_value("O=C(NC1CC1)[C@H]1O[C@@H](n2cnc3c(NCCc4cn(Cc5cccnc5)c5ccccc45)ncnc32)[C@H](O)[C@@H]1O")
183
>>> data_value("CN(C)c1ccccc1Cn1cc(CCNc2ncnc3c2ncn3C2O[C@H](C(=O)NC3CC3)[C@@H](O)[C@H]2O)c2ccccc21 (some centres undefined)")
760

Please fill in: Ki reported for `COCCn1cc(CCNc2ncnc3c2ncn3[C@@H]2O[C@H](C(=O)NC3CC3)[C@@H](O)[C@H]2O)c2ccccc21` = 370

Lab book: Ki of COc1ccccc1Cn1cc(CCNc2ncnc3c2ncn3C2O[C@H](C(=O)NC3CC3)[C@@H](O)[C@H]2O)c2ccccc21 (some centres undefined) noted as 810

# Ki (compound: CCNC(=O)[C@H]1OC(n2cnc3c(NCCc4cn(Cc5cc(C)ccc5C)c5ccccc45)ncnc32)[C@H](O)[C@@H]1O (some centres undefined) ) is 660

The value of Ki measured for the compound Cc1ccc(Cn2cc(CCNc3ncnc4c3ncn4C3O[C@H](C(=O)NC4CC4)[C@@H](O)[C@H]3O)c3ccccc32)cc1 (some centres undefined) turned out to be 340

So, OC[C@H]1OC(n2cnc3c(NCCc4cn(Cc5ccccc5)c5ccccc45)ncnc32)[C@H](O)[C@@H]1O (some centres undefined) ? Its Ki was 250

// field: Ki; key: `CNC(=O)[C@H]1O[C@@H](n2cnc3c(NCCc4cn(Cc5cc(C)ccc5C)c5ccccc45)ncnc32)[C@H](O)[C@@H]1O` ; value = 3000

Input Cc1ccc(C)c(Cn2cc(C(C)CNc3ncnc4c3ncn4[C@@H]3O[C@H](C(=O)NC4CC4)[C@@H](O)[C@H]3O)c3ccccc32)c1 (some centres undefined) . Output Ki: 2500

Summary for this compound, Cn1cc(CCNc2ncnc3c2ncn3C2O[C@H](C(=O)NC3CC3)[C@@H](O)[C@H]2O)c2ccccc21 (some centres undefined) : Ki is 270

---

# System: Mus musculus
# Assay Method Text: Effective dose for phenylbenzoquinone-induced writhing in mice after peroral administration expressed as analgesic activity.
# Format: functional
# Measurement Setup: po
Recorded Endpoint: ED50 (mg/kg)
Use mg/kg as the unit, but write only the number.

>>> data_value("CC(Cc1cn(C2CCCC2)c2ccccc12)Nc1ncnc2c1ncn2C1O[C@H](C(=O)NC2CC2)[C@@H](O)[C@H]1O (some centres undefined)")
2.2
>>> data_value("COc1ccc(Cn2cc(CCNc3ncnc4c3ncn4C3O[C@H](C(=O)NC4CC4)[C@@H](O)[C@H]3O)c3ccccc32)cc1 (some centres undefined)")
71.6

Form field ED50, entry `Cc1c(CCNc2ncnc3c2ncn3[C@@H]2O[C@H](C(=O)NC3CC3)[C@@H](O)[C@H]2O)c2ccccc2n1C1CCCC1` : 0.5

---

Each entry below lists one item and its recorded Displacement value.
# System Tested: Adenosine receptor A1 (Rattus norvegicus) (UniProt P25099)
# Assay Method Text: Percent displacement from adenosine A1 receptor at 10e-5 M in rat brain membrane in vitro.
# Assay type: cell membranes
Output should be the measured figure followed by the unit it is expressed in.

Worked set:
>>> data_value("OC[C@H]1OC(n2cnc3c(NCCc4cn(Cc5c(Cl)cccc5Cl)c5ccccc45)ncnc32)[C@H](O)[C@@H]1O (some centres undefined)")
"92%"
>>> data_value("Cc1ccc(C)c(Cn2cc(CCNc3ncnc4c3ncn4[C@@H]3O[C@H](C(=O)NC4CC4)[C@@H](O)[C@H]3O)c3cc(Cl)ccc32)c1")
"99%"
>>> data_value("OC[C@H]1O[C@@H](n2cnc3c(NCCc4cn(Cc5ccc(Cl)cc5)c5ccccc45)ncnc32)[C@H](O)[C@@H]1O")
"100%"

Proceed to the following item.
Reported Adenosine receptor A1 (Rattus norvegicus) (UniProt P25099) Displacement for item `COCCNC(=O)[C@H]1O[C@@H](n2cnc3c(NCCc4cn(Cc5ccc(Cl)cc5)c5ccccc45)ncnc32)[C@H](O)[C@@H]1O` was 90%

---

# System Tested: Adenosine A2 receptor (Rattus norvegicus) (UniProt P29276+P30543)
# Assay Method Text: Percent displacement from adenosine A2 receptor at 10e-5 M in rat striatal membrane in vitro.
# Type: cell membranes
Please note: True applies when Displacement is 80% or greater, and False applies otherwise.

Answered examples (5):
>>> classification("O=C(NC1CC1)[C@H]1OC(n2cnc3c(NCCc4cn(CCN5CCCCC5)c5ccccc45)ncnc32)[C@H](O)[C@@H]1O (stereo partly specified)")
"True"
>>> classification("Cc1ccc(C)c(Cn2cc(CCNc3ncnc4c3ncn4[C@@H]3O[C@H](C(N)=O)[C@@H](O)[C@H]3O)c3ccccc32)c1")
"False"
>>> classification("O=C(NC1CC1)[C@H]1OC(n2cnc3c(NCCc4cn(CCN5CCOCC5)c5ccccc45)ncnc32)[C@H](O)[C@@H]1O (stereo partly specified)")
"True"
>>> classification("O=C(NC1CC1)[C@H]1OC(n2cnc3c(NCCc4c(-c5ccccc5)[nH]c5ccccc45)ncnc32)[C@H](O)[C@@H]1O (stereo partly specified)")
"False"
>>> classification("O=C(NC1CC1)[C@H]1O[C@@H](n2cnc3c(NCCc4c[nH]c5ccccc45)ncnc32)[C@H](O)[C@@H]1O")
"False"

*Q* Quick check: does CCNC(=O)[C@H]1OC(n2cnc3c(NCCc4cn(Cc5cc(C)ccc5C)c5ccccc45)ncnc32)[C@H](O)[C@@H]1O (stereo partly specified) have Displacement greater than or equal to 80%?
*A* True

*Q* Has O=C(NC1CC1)[C@H]1OC(n2cnc3c(NCCc4cn(CC5CC5)c5ccccc45)ncnc32)[C@H](O)[C@@H]1O (stereo partly specified) a recorded Displacement greater than or equal to 80%?
*A* True

*Q* Check the entry Cc1ccc(C)c(Cn2cc(C(C)CNc3ncnc4c3ncn4[C@@H]3O[C@H](C(=O)NC4CC4)[C@@H](O)[C@H]3O)c3ccccc32)c1 (stereo partly specified) : does Displacement equal or exceed 80%?
*A* False

*Q* Answer whether Displacement of O=C(NC1CC1)[C@H]1OC(n2cnc3c(NCCc4cn(Cc5ccc(Br)cc5F)c5ccccc45)ncnc32)[C@H](O)[C@@H]1O (stereo partly specified) is greater than or equal to 80%.
*A* True

Source: ChEMBL document CHEMBL1127433
